B1: RAB22A (parent)
chain: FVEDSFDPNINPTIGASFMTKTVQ

Variants of: B1
Test: protein stability index of a GFP-peptide fusion (GPS, HEK-293T) (PSI 1-6); higher = more stable;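 further: lentivirally expressed fusions sorted by FACS into six bins by GFP to DsRed ratio, PSI derived from sequencing read proportions per bin multiplied by bin number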
Settings: c terminus: a fixed tail appended
endpoint-label: protein stability index

* E3P | 2.95
* T13L | 2.21
* N11C | 2.46
* F6N | 2.9
* A16R | 2.26
* Q24L | 2.19
* F18L | 2.56
* F6V | 3.31
* F6Y | 2.02
* S5W | 1.52
* V23Q | 2.39
* S5Y | 1.98
* P12A | 2.13
* D4E | 2.52
* T22F | 2.02
* Q24I | 1.55
* D7N | 1.61
* T22I | 1.6
* D7Y | 1.67
* Q24V | 2.24
* F1K | 4.2
* F18Q | 3.52
* E3V | 1.75
* I10W | 1.93
* D7F | 2.75
* S5G | 2.08
* I10G | 2.3
* T20I | 1.87
* I10V | 2.21
* I14F | 2.05
* V23E | 3.24
* F6R | 2.36
* V2G | 3.77
* P12R | 1.81
* I14P | 3.07
* V2I | 2.81
* S5D | 3.27
* F6H | 2.58
* T13Q | 2.44
* T20P | 2.29
* V23P | 2.94
* E3A | 1.93
* Q24G | 2.22
* P8W | 2.65
* E3H | 2.26
* F18K | 2.79
* G15R | 1.92
* A16K | 1.97
* K21R | 2.19
* M19Y | 2.08
* A16H | 2.11
* Q24D | 2.56
* F18T | 3.15
* P8Y | 1.85
* P8M | 2.06
* T20H | 2.34
* I10P | 2.57
* F18C | 3.17
* N9I | 2.23
* P12D | 2.49
* V2R | 3.48
* I14K | 2.29
* I10F | 2.2
* V23K | 2.26
* P8H | 2.1
* P8F | 2.94
* A16T | 2.26
* S17T | 2.17
* T22Y | 1.73
* F1P | 4.42
* F6M | 2.69
* T22N | 2.25
* T22R | 2.34
* T20N | 2.31
* T20D | 2.52
* P8L | 2.1
* K21N | 2.51
* P8S | 2.17
* D7W | 3.07
